- TARGET_OR_TEST_SYSTEM: UniProt O54939
- PROTOCOL_SUMMARY: Inhibition of 17beta-HSD3 in rat testes microsomes using [14C]-4-androstene-3,17-dione as substrate measured based on 18% of initial enzyme transformation at 0.01 uM after 2 hrs
- TEST_SETTINGS: Testis
Each item that follows carries a reported inhibition.
MEASURED_PARAMETER: inhibition (%)

[[record]]
entry_smiles = "C[C@]12CC[C@@]3(C[C@@H]1CC[C@@H]1[C@@H]2CC[C@]2(C)C(=O)CC[C@@H]12)CN(C(=O)c1ccc(C(F)(F)F)cc1)CC(=O)O3"
measured_parameter = "inhibition"
assay_value = 24.3

[[record]]
entry_smiles = "C[C@]12CC[C@@]3(C[C@@H]1CC[C@@H]1[C@@H]2CC[C@]2(C)C(=O)CC[C@@H]12)CN(Cc1ccc(C(F)(F)F)cc1C(F)(F)F)CC(=O)O3"
measured_parameter = "inhibition"
assay_value = 18.3

[[record]]
entry_smiles = "C[C@]12CC[C@@]3(C[C@@H]1CC[C@@H]1[C@@H]2CC[C@]2(C)C(=O)CC[C@@H]12)CN(Cc1cccc2ccccc12)CC(=O)O3"
measured_parameter = "inhibition"
assay_value = 12.8

[[record]]
entry_smiles = "O=C1OC2(CCCCC2)CN(Cc2cn(Cc3ccccc3)nn2)[C@H]1Cc1ccccc1"
measured_parameter = "inhibition"
assay_value = 0


* * *

- TARGET_OR_TEST_SYSTEM: 17-beta-hydroxysteroid dehydrogenase type 3 (Rattus norvegicus) (UniProt O54939)
- Sequence (whole entry): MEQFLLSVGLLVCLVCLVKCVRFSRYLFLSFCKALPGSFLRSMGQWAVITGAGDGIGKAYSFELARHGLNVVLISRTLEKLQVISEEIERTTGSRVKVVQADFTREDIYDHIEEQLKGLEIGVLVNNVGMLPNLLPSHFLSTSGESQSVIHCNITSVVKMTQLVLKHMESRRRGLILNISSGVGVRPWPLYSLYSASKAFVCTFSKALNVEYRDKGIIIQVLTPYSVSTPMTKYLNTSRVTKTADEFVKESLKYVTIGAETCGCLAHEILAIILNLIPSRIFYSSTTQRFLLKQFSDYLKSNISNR
- PROTOCOL_SUMMARY: Inhibition of 17beta-HSD3 in rat testes microsomes using [14C]-4-androstene-3,17-dione as substrate measured based on 33% of initial enzyme transformation at 0.1 uM after 2 hrs
- TEST_SETTINGS: Testis
Param threshold (80%) applies to inhibition; output YES when value >= threshold, NO when value < threshold.

[[record]]
entry_smiles = "C[C@]12CC[C@@]3(C[C@@H]1CC[C@@H]1[C@@H]2CC[C@]2(C)C(=O)CC[C@@H]12)CN(Cc1ccc(C(F)(F)F)cc1)CC(=O)O3"
answer_label = "YES"

[[record]]
entry_smiles = "C[C@]12CC[C@@]3(C[C@@H]1CC[C@@H]1[C@@H]2CC[C@]2(C)C(=O)CC[C@@H]12)CN(CCc1ccc(C(F)(F)F)cc1)CC(=O)O3"
answer_label = "NO"

[[record]]
entry_smiles = "C[C@@H]1CN(S(=O)(=O)c2ccccc2C(F)(F)F)[C@@H](C)CN1C[C@@]1(O)CC[C@@]2(C)[C@@H](CC[C@@H]3[C@@H]2CC[C@]2(C)C(=O)CC[C@@H]32)C1"
answer_label = "YES"

[[record]]
entry_smiles = "C[C@]12CC[C@@]3(C[C@@H]1CC[C@@H]1[C@@H]2CC[C@]2(C)C(=O)CC[C@@H]12)CN(CCCc1ccccc1)CC(=O)O3"
answer_label = "NO"

